The values you see were collected from ChEMBL document CHEMBL1148842.

Biological target: Prostaglandin E2 receptor EP1 subtype (Homo sapiens)
Assay: Displacement of [3H]PGE2 from human recombinant EP1 receptor expressed in CHO cells
pIC50: −log10 of the molar value.
Below is a list of entries, each paired with its recorded pIC50 value.
Measure: pIC50

Cc1ccc(-c2cc(Cl)ccc2OCc2ccccc2)n1-c1ccc(S(C)(=O)=O)cc1; 7.70
Cc1cc(=O)[nH]c2cc(-n3c(C)ccc3-c3cc(Cl)ccc3OCc3ccccc3)ccc12; 7.20
Cc1ccc(-c2cc(Cl)ccc2OCc2ccccc2)n1-c1cccc(S(C)(=O)=O)c1; 6.90
CNC(=O)c1ccc(-n2c(C)ccc2-c2cc(Br)ccc2OCc2ccc(F)cc2F)cc1; 8.40
Cc1ccc(-c2cc(Br)ccc2OCc2ccc(F)cc2F)n1-c1ccc(-c2cnc[nH]2)cc1; 7.40
Cc1ccc(-c2cc(Cl)ccc2OCc2ccccc2)n1-c1ccc(S(N)(=O)=O)cc1; 7.70
Cc1ccc(-c2cc(Cl)ccc2OCc2ccccc2)n1-c1ccc(C(=O)NCc2cccnc2)cc1; 7.90
Cc1ccc(-c2cc(Br)ccc2OCc2ccc(F)cc2F)n1-c1cccc(-c2ccccn2)c1; 6.60
CCN(CC)C(=O)c1ccc(-n2c(C)ccc2-c2cc(Br)ccc2OCc2ccc(F)cc2F)cc1; 7.30

* * *

Catalogue of pIC50 readings, one per entry.
Molecular target: UniProt P34995
Assay: Displacement of [3H]PGE2 from human recombinant EP1 receptor expressed in CHO cells
pIC50: −log10 of the molar value.
Measure: pIC50

Cc1ccc(-c2cc(Cl)ccc2OCc2ccccc2)n1-c1ccc(C(=O)NCc2ccccc2)cc1; 7.60
Cc1ccc(-c2cc(Cl)ccc2OCc2ccccc2)n1-c1ccc2cn[nH]c2c1; 7.40
Cc1ccc(-c2cc(Cl)ccc2OCc2ccccc2)n1-c1cccc(C(=O)NCc2ccccc2)c1; 7.60
Cc1ccc(-c2cc(Cl)ccc2OCc2ccccc2)n1-c1cccc(C(=O)NCc2ccccn2)c1; 7.30
Cc1ccc(-c2cc(Br)ccc2OCc2ccc(F)cc2F)n1-c1cccc(C(=O)Nc2ccccc2)c1; 6.30
Cc1ccc(-c2cc(Br)ccc2OCc2ccc(F)cc2F)n1-c1cccc(C(=O)N(C)C)c1; 8.00
CNC(=O)c1cccc(-n2c(C)ccc2-c2cc(Br)ccc2OCc2ccc(F)cc2F)c1; 7.70
Cc1ccc(-c2cc(Cl)ccc2OCc2ccccc2)n1-c1cccc(C(=O)N[C@H](C)c2ccccc2)c1; 7.40
Cc1ccc(-c2ccccc2OCc2ccc(F)cc2F)n1-c1ccc2nn[nH]c2c1; 6.20

* * *

Entries and their pIC50
Target: Prostaglandin E2 receptor EP1 subtype (Homo sapiens, UniProt P34995)
Sequence (P34995 whole entry): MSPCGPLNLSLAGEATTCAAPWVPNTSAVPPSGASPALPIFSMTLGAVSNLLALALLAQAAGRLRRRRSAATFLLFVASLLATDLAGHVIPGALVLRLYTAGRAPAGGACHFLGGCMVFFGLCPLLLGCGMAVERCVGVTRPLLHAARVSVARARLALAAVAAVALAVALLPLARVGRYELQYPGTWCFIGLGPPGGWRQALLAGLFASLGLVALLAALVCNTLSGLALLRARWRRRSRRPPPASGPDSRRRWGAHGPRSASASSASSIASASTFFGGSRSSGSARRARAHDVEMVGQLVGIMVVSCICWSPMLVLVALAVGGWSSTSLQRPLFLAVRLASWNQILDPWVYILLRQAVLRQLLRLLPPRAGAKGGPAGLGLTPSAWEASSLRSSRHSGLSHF
Experiment: Displacement of [3H]PGE2 from human recombinant EP1 receptor expressed in CHO cells
pIC50: −log10 of the molar value.
Measure: pIC50

Cc1ccc(-c2cc(Br)ccc2OCc2ccc(F)cc2F)n1-c1cccc(-c2nc3ccccc3[nH]2)c1; 7.20
Cc1ccc(-c2cc(Cl)ccc2OCc2ccccc2)n1-c1ccc(C(=O)NCc2ccccn2)cc1; 8.60
Cc1ccc(-c2cc(Br)ccc2OCc2ccc(F)cc2F)n1-c1cccc(C(=O)NS(C)(=O)=O)c1; 8.40
Cc1ccc(-c2cc(Br)ccc2OCc2ccc(F)cc2F)n1-c1ccc(C(=O)N(C)C)cc1; 7.80
Cc1ccc(-c2cc(Br)ccc2OCc2ccc(F)cc2F)n1-c1ccc2c(c1)C(=O)NC2=O; 6.80
Cc1ccc(-c2cc(Cl)ccc2OCc2ccccc2)n1-c1cccc(C(=O)NS(=O)(=O)c2ccccc2)c1; 8.60
Cc1ccc(-c2cc(Cl)ccc2OCc2ccccc2)n1-c1ccc(-n2cncn2)cc1; 6.30
Cc1ccc(-c2cc(Cl)ccc2OCc2ccccc2)n1-c1ccc(C(=O)N[C@@H](C)c2ccccc2)cc1; 8.30
Cc1ccc(-c2cc(Br)ccc2OCc2ccc(F)cc2F)n1-c1cccc(-c2cccnc2)c1; 6.90
